Experiment: Solubility of the compound at pH 7.4
Type: physicochemical
Conditions: buffer
readout-type: log10(solubility) (log10 of the value in µg/mL)

- smi: "Cc1nc2cc(NC(=O)c3cc4sc(N5CCC(O)CC5)nc4s3)ccc2o1"
  log10(solubility): 0.38
- smi: "Cc1nc2cc(NC(=O)c3cc4sc(N(C)CCO)nc4s3)ccc2o1"
  log10(solubility): 0.65
- smi: "O=C(Nc1ccc(-c2ccc(Cl)cn2)cc1)c1cc2sc(NCCN3CCOCC3)nc2s1"
  log10(solubility): -0.70
- smi: "Cc1nc2cc(NC(=O)c3cc4sc(N5CCOCC5)nc4s3)ccc2o1"
  log10(solubility): -0.09
- smi: "COc1ccc(-c2ccc(NC(=O)c3cc4sc(NCCN5CCOCC5)nc4s3)cc2)nc1"
  log10(solubility): -0.70
- smi: "O=C(Nc1ccc(-c2ccc(C(F)(F)F)cn2)cc1)c1cc2sc(NCCN3CCOCC3)nc2s1"
  log10(solubility): 0.99
- smi: "O=C(Nc1ccc(-c2ccc(F)cc2)cn1)c1cc2sc(NCCN3CCOCC3)nc2s1"
  log10(solubility): -0.25
- smi: "Cc1nc2cc(NC(=O)c3cc4sc(NCCN5CCOCC5)nc4s3)ccc2o1"
  log10(solubility): 0.32
- smi: "O=C(Nc1ccc(-c2ccc(F)cc2)nc1)c1cc2sc(NCCN3CCOCC3)nc2s1"
  log10(solubility): -0.24
- smi: "Cc1ccc(-c2ccc(NC(=O)c3cc4sc(NCCN5CCOCC5)nc4s3)cc2)nc1"
  log10(solubility): 0.11
- smi: "Cc1nc2cc(NC(=O)c3cc4sc(N5CCC(C(=O)N(C)C)CC5)nc4s3)ccc2o1"
  log10(solubility): 0.08
- smi: "O=C(Nc1ccc(-c2ccc(F)nc2)cc1)c1cc2sc(NCCN3CCOCC3)nc2s1"
  log10(solubility): 0.04
- smi: "O=C(Nc1ccc(-c2ccc(F)cn2)cc1)c1cc2sc(NCCN3CCOCC3)nc2s1"
  log10(solubility): -0.12

----------
Assay: Half-life in BALB/c mouse at 3 mg/kg, iv by LC-MS analysis
Format: ADME, organism-based
Conditions: in vivo

- smi: "O=C(Nc1ccc(-c2ccc(F)cn2)cc1)c1cc2sc(NCCN3CCOCC3)nc2s1"
  half-life [min]: 72

----------
Assay: Half-life in BALB/c mouse at 2 mg/kg, iv by LC-MS analysis
Assay type: ADME, organism-based
Details: in vivo

- smi: "Cc1nc2cc(NC(=O)c3cc4sc(N5CCOCC5)nc4s3)ccc2o1"
  half-life / min: 19.8
- smi: "Cc1nc2cc(NC(=O)c3cc4sc(N5CCC(C(=O)N(C)C)CC5)nc4s3)ccc2o1"
  half-life / min: 55.2

----------
Test: Cytotoxicity against HEK293 cells assessed as inhibition of cell growth
Type: toxicity, cell-based
Conditions: human
Recorded IC50 for the following compounds

- smi: "O=C(Nc1ccc(-c2ccc(F)cn2)cc1)c1cc2sc(NCCN3CCOCC3)nc2s1"
  IC50: "> 50 µM"
- smi: "Cc1nc2cc(NC(=O)c3cc4sc(N5CCC(C(=O)N(C)C)CC5)nc4s3)ccc2o1"
  IC50: "> 50 µM"

----------
Readings of Kp for the listed compounds
Test: Ratio of drug concentration in lung to plasma in BALB/c mouse at 10 mg/kg, po by LC-MS analysis
Type: ADME, organism-based

- smi: "Cc1nc2cc(NC(=O)c3cc4sc(N5CCC(C(=O)N(C)C)CC5)nc4s3)ccc2o1"
  Kp: 0.7
- smi: "O=C(Nc1ccc(-c2ccc(F)cn2)cc1)c1cc2sc(NCCN3CCOCC3)nc2s1"
  Kp: 4.8

Taken from ChEMBL document CHEMBL5223075.
